Target: Malate dehydrogenase, mitochondrial (Sus scrofa)
Sequence (P00346 whole entry): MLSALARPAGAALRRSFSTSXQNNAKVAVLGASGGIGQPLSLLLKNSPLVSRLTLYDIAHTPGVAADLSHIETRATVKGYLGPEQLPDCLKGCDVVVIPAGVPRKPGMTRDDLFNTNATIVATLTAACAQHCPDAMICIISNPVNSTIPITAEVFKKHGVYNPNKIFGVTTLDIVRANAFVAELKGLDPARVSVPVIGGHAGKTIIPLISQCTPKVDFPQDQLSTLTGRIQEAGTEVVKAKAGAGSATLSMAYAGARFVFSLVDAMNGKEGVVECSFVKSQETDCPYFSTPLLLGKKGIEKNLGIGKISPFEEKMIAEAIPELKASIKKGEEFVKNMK
Kindly supply the reported IC50 values for the records listed here.

As a guide, the following entries are already answered.
**Q:** Check the records and state IC50 for O=S(=O)(Nc1ccc(-c2nc3ccccc3o2)cc1)c1cccc(Cl)c1
**A:** > 63 µM

**Q:** Check the records and state IC50 for O=S(=O)(Nc1ccc(-c2nc3ccccc3o2)cc1)c1cccc(C(F)(F)F)c1
**A:** > 63 µM

**Q:** Check the records and state IC50 for COc1ccc(S(=O)(=O)Nc2ccc3oc(-c4ccccc4)nc3c2)cc1
**A:** > 63 µM

Please state IC50 for every molecule in the list that follows.
1. O=S(=O)(Nc1ccc2oc(-c3ccccc3)nc2c1)c1ccc(Cl)c(C(F)(F)F)c1
2. O=S(=O)(Nc1ccc(-c2nc3ccccc3o2)cc1)c1ccc(F)c(C(F)(F)F)c1
3. O=S(=O)(Nc1ccc(-c2nc3ccccc3o2)cc1)c1cccc(O)c1
4. COc1ccccc1S(=O)(=O)Nc1ccc2oc(-c3ccccc3)nc2c1
5. C=Cc1ccc(S(=O)(=O)Nc2ccc3oc(-c4ccccc4)nc3c2)cc1
6. Cc1ccc(S(=O)(=O)Nc2ccc3oc(-c4ccccc4)nc3c2)cc1
7. O=S(=O)(Nc1ccc(-c2nc3ccccc3o2)cc1)c1ccccc1F
8. COc1ccccc1S(=O)(=O)Nc1ccc(-c2nc3ccccc3o2)cc1

**A:**
> 63 µM
> 63 µM
> 63 µM
> 63 µM
> 63 µM
> 63 µM
> 63 µM
> 63 µM

Please state IC50 for every molecule in the list that follows.
1. O=S(=O)(Nc1ccc(-c2nc3ccccc3o2)cc1)c1cccc(F)c1
2. COc1cccc(S(=O)(=O)Nc2ccc(-c3nc4ccccc4o3)cc2)c1
3. Cc1cccc(S(=O)(=O)Nc2ccc(-c3nc4ccccc4o3)cc2)c1

**A:**
1. > 63 µM
2. > 63 µM
3. > 63 µM

Please state IC50 for every molecule in the list that follows.
1. O=S(=O)(Nc1ccc2oc(-c3ccccc3)nc2c1)c1ccc(C(F)(F)F)cc1
2. O=S(=O)(Nc1ccc(-c2nc3ccccc3o2)cc1)c1ccccc1Cl
3. Cc1ccccc1S(=O)(=O)Nc1ccc2oc(-c3ccccc3)nc2c1
4. Cc1cccc(S(=O)(=O)Nc2ccc3oc(-c4ccccc4)nc3c2)c1

**A:**
1. > 63 µM
2. > 63 µM
3. > 63 µM
4. > 63 µM

###

This document collects pIC50 values reported for Phosphotyrosine protein phosphatase (Mycobacterium tuberculosis).
One number for each entry, as −log10 of the molar value.

As a guide, the following entries are already answered.
**Q:** // output pIC50; input O=S(=O)(Nc1ccc2oc(-c3ccc(NS(=O)(=O)c4ccc(Cl)s4)cc3)nc2c1)c1ccc2ccccc2c1 ; system Phosphotyrosine protein phosphatase (Mycobacterium tuberculosis)
**A:** 5.27

**Q:** // output pIC50; input O=S(=O)(Nc1ccc2oc(-c3ccccc3)nc2c1)c1ccccc1C(F)(F)F ; system Phosphotyrosine protein phosphatase (Mycobacterium tuberculosis)
**A:** 4.24

**Q:** // output pIC50; input COc1cccc(S(=O)(=O)Nc2ccc(-c3nc4ccccc4o3)cc2)c1 ; system Phosphotyrosine protein phosphatase (Mycobacterium tuberculosis)
**A:** 4.17

**Q:** // output pIC50; input Nc1ccc(S(=O)(=O)Nc2ccc(-c3nc4cc(NS(=O)(=O)c5ccc(N)cc5)ccc4o3)cc2)cc1 ; system Phosphotyrosine protein phosphatase (Mycobacterium tuberculosis)
**A:** 4.80

**Q:** // output pIC50; input CCc1ccc(S(=O)(=O)Nc2ccc(-c3nc4cc(NS(=O)(=O)c5ccc(Cl)s5)ccc4o3)cc2)cc1 ; system Phosphotyrosine protein phosphatase (Mycobacterium tuberculosis)
**A:** 5.19

Please state pIC50 for every molecule in the list that follows.
1. O=S(=O)(Nc1ccc(-c2nc3ccccc3o2)cc1)c1ccc(Cl)c(Cl)c1
2. O=S(=O)(Nc1ccc(-c2nc3ccccc3o2)cc1)c1cccc(F)c1
3. O=S(=O)(Nc1ccc(-c2nc3cc(NS(=O)(=O)c4cccc(F)c4)ccc3o2)cc1)c1cccc(F)c1

**A:**
1: 4.60; 2: 4.04; 3: 4.89

###

Kindly supply the reported log10 IC50 values for the records listed here.
target: Phosphotyrosine protein phosphatase (Mycobacterium tuberculosis, UniProt A0A045ISB3)
Use the decimal logarithm of IC50 (µM).

**Q:** // output log10 IC50; input O=S(=O)(Nc1ccc(-c2nc3cc(NS(=O)(=O)c4cccc(C(F)(F)F)c4)ccc3o2)cc1)c1cccc(C(F)(F)F)c1 ; system Phosphotyrosine protein phosphatase (Mycobacterium tuberculosis, UniProt A0A045ISB3)
**A:** 0.46

**Q:** // output log10 IC50; input O=S(=O)(Nc1ccc(-c2nc3cc(NS(=O)(=O)c4ccc5ccccc5c4)ccc3o2)cc1)c1ccc2ccccc2c1 ; system Phosphotyrosine protein phosphatase (Mycobacterium tuberculosis, UniProt A0A045ISB3)
**A:** 0.64

**Q:** // output log10 IC50; input O=S(=O)(Nc1ccc2oc(-c3ccc(NS(=O)(=O)c4ccc(Cl)s4)cc3)nc2c1)c1ccc(Cl)c(C(F)(F)F)c1 ; system Phosphotyrosine protein phosphatase (Mycobacterium tuberculosis, UniProt A0A045ISB3)
**A:** 0.58

**Q:** // output log10 IC50; input Cc1ccc(S(=O)(=O)Nc2ccc(-c3nc4cc(NS(=O)(=O)c5ccc(C)cc5)ccc4o3)cc2)cc1 ; system Phosphotyrosine protein phosphatase (Mycobacterium tuberculosis, UniProt A0A045ISB3)
**A:** 0.84

**Q:** // output log10 IC50; input O=S(=O)(Nc1ccc(-c2nc3cc(NS(=O)(=O)c4ccccc4Cl)ccc3o2)cc1)c1ccccc1Cl ; system Phosphotyrosine protein phosphatase (Mycobacterium tuberculosis, UniProt A0A045ISB3)
**A:** 0.81

Please state log10 IC50 for every compound in the list that follows.
1. Cc1cccc(S(=O)(=O)Nc2ccc(-c3nc4cc(NS(=O)(=O)c5cccc(C)c5)ccc4o3)cc2)c1
2. O=S(=O)(Nc1ccc(-c2nc3cc(NS(=O)(=O)c4ccccc4C(F)(F)F)ccc3o2)cc1)c1ccccc1C(F)(F)F
3. COc1ccccc1S(=O)(=O)Nc1ccc2oc(-c3ccccc3)nc2c1

**A:**
0.76
0.91
1.83

###

Kindly supply the reported IC50 values for the records listed here.
Target: Phosphotyrosine protein phosphatase (Mycobacterium tuberculosis, UniProt A0A045ISB3)
Sequence (A0A045ISB3 whole entry): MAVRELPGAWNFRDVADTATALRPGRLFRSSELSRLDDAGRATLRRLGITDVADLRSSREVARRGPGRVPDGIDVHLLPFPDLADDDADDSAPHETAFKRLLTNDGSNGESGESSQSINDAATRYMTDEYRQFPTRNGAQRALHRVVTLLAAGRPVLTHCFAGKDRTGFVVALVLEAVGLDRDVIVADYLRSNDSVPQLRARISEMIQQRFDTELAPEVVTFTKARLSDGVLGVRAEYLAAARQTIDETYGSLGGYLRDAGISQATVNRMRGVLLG
Answers are plain numbers, in µM.

As a guide, the following entries are already answered.
**Q:** Check the records and state IC50 for O=S(=O)(Nc1ccc(-c2nc3cc(NS(=O)(=O)c4ccc5nsnc5c4)ccc3o2)cc1)c1ccc2nsnc2c1
**A:** 6.4

**Q:** Check the records and state IC50 for O=S(=O)(Nc1ccc(-c2nc3cc(NS(=O)(=O)c4ccc(Cl)s4)ccc3o2)cc1)c1ccc2ccccc2c1
**A:** 3.9

**Q:** Check the records and state IC50 for O=[N+]([O-])c1cc(S(=O)(=O)Nc2ccc3oc(-c4ccccc4)nc3c2)ccc1Cl
**A:** 33

**Q:** Check the records and state IC50 for COc1ccc(Cl)cc1S(=O)(=O)Nc1ccc2oc(-c3ccccc3)nc2c1
**A:** 31

Please state IC50 for every compound in the list that follows.
1. O=S(=O)(Nc1ccc2oc(-c3ccccc3)nc2c1)c1ccccc1F
2. O=S(=O)(Nc1ccc(-c2nc3cc(NS(=O)(=O)c4ccc5ncsc5c4)ccc3o2)cc1)c1ccc2ncsc2c1
3. O=S(=O)(Nc1ccc(-c2nc3cc(NS(=O)(=O)c4ccc(Cl)s4)ccc3o2)cc1)c1cccc(C(F)(F)F)c1

**A:**
[80, 20, 3]

Please state IC50 for every compound in the list that follows.
1. O=S(=O)(Nc1ccc(-c2nc3cc(NS(=O)(=O)c4cccc(Cl)c4)ccc3o2)cc1)c1cccc(Cl)c1
2. Cc1ccc(S(=O)(=O)Nc2ccc(-c3nc4ccc(NS(=O)(=O)c5ccc(C)cc5)cc4[nH]3)cc2)cc1

**A:**
2.3
23
